tested on: Human immunodeficiency virus 1; assay: Antiviral activity against HIV1 expressing RT L100I mutant infected in human MT4 cells assessed as protection against virus-induced cytopathic effect incubated for 5 days by MTT assay; assay type: functional, organism-based; conditions: Human immunodeficiency virus 1, MT4, 120 h
// values below are reported EC50
Answer format: numeric, nM implied, no suffix.

[
  {
    "compound": "Cc1cc(/C=C/C#N)cc(C)c1Oc1nc(NC2CCN(Cc3ccc(C(N)=O)cc3)CC2)nc2sccc12",
    "EC50, nM": 6.11
  }
]

### Prompt Can you look up the measured EC50 of Cc1cc(C#N)cc(C)c1Oc1nc(Nc2ccc(C#N)cc2)nc(N)c1Br [ETRAVIRINE] for me?
### Response 5.38

### Prompt What would you report for CCOC(=O)c1ccc(CN2CCC(Nc3nc(Oc4c(C)cc(/C=C/C#N)cc4C)c4ccsc4n3)CC2)cc1 ?
### Response 19.4

### Prompt What would you report for Cc1cc(/C=C/C#N)cc(C)c1Oc1nc(NC2CCN(Cc3ccc(S(N)(=O)=O)cc3)CC2)nc2sccc12 ?
### Response 2.05

### Prompt What would you report for Cc1cc(/C=C/C#N)cc(C)c1Oc1nc(NC2CCN(Cc3ccc(C#N)cc3)CC2)nc2sccc12 ?
### Response 21.3

### Prompt What would you report for Cc1cc(/C=C/C#N)cc(C)c1Oc1nc(NC2CCN(Cc3cccc(C(N)=O)c3)CC2)nc2sccc12 ?
### Response 5.75

### Prompt What would you report for Cc1cc(/C=C/C#N)cc(C)c1Oc1nc(NC2CCN(Cc3ccc(F)cc3)CC2)nc2sccc12 ?
### Response 30.4

----------
molecular target: Human immunodeficiency virus type 1 reverse transcriptase (Human immunodeficiency virus 1, UniProt Q72547, K103N/Y181C); test: Inhibition of HIV1 RT K103N/Y181C mutant in presence of reconstituted template and viral nucleotides [digoxigenin (DIG)-dUTP, biotin-dUTP and dTTP] incubated for 1 hr by ELISA method
outcome.measure: IC50 (nM)
Answer format: numeric, nM implied, no suffix.

Here are 2 compounds together with their reported answers.
[
  {
    "compound.structure": "Cc1cc(/C=C/C#N)cc(C)c1Oc1nc(NC2CCN(Cc3ccc(S(N)(=O)=O)cc3)CC2)nc2sccc12",
    "outcome.measure": "IC50",
    "quantitative.result": 120
  },
  {
    "compound.structure": "Cc1cc(/C=C/C#N)cc(C)c1Oc1nc(NC2CCN(Cc3ccc(S(N)(=O)=O)cc3)CC2)nc2ccsc12",
    "outcome.measure": "IC50",
    "quantitative.result": 107
  }
]

From here, focus on the item given below.
### Prompt Can you look up the measured IC50 of Cc1cc(C#N)cc(C)c1Oc1nc(NC2CCN(Cc3ccc(S(N)(=O)=O)cc3)CC2)nc2ccsc12 for me?
### Response 71

----------
target: Human immunodeficiency virus type 1 reverse transcriptase (Human immunodeficiency virus 1, UniProt Q72547, K103N); assay: Inhibition of HIV1 RT K103N mutant in presence of reconstituted template and viral nucleotides [digoxigenin (DIG)-dUTP, biotin-dUTP and dTTP] incubated for 1 hr by ELISA method
// values below are reported IC50
Answer format: numeric, nM implied, no suffix.

[
  {
    "compound.structure": "Cc1cc(/C=C/C#N)cc(C)c1Oc1nc(NC2CCN(Cc3ccc(S(N)(=O)=O)cc3)CC2)nc2sccc12",
    "IC50 [nM]": 222
  }
]

### Prompt Can you look up the measured IC50 of Cc1cc(C#N)cc(C)c1Oc1nc(NC2CCN(Cc3ccc(S(N)(=O)=O)cc3)CC2)nc2ccsc12 for me?
### Response 162

### Prompt What would you report for Cc1cc(/C=C/C#N)cc(C)c1Oc1nc(NC2CCN(Cc3ccc(S(N)(=O)=O)cc3)CC2)nc2ccsc12 ?
### Response 191
